- PROTOCOL NOTES: growth inhibitors of wild-type E. coli, primary screen, strain BW25113, expanded library, OD600 (AID 710);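 note: growth measured after 20 h incubation at 37 °C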
- ASSAY CONTEXT: OD600 absorbance, at 100 µM, stronger effect = higher value
Out of some 98,000 compounds screened, about 150 (0.15%) were called active. This excerpt belongs to a sample that is enriched for actives.
This section presents compounds with their documented growth inhibition values.
# unit: % | format: bare number

Study these solved cases before continuing.
- COMPOUND: "S=c1[nH]nc(-c2ccc(Cl)cc2)n1CC1CCCO1 (configuration not stated)"
  growth inhibition, %: 2
- COMPOUND: "Cc1ccc(S(=O)(=O)N(C)C2(C)CCS(=O)(=O)C2)cc1 (configuration not stated)"
  growth inhibition, %: 4
- COMPOUND: "O=C(CC12CC3CC(CC(C3)C1)C2)Nc1ccc2c(c1)COC2=O"
  growth inhibition, %: -1
- COMPOUND: "CC(C)(C)c1cc2cccnc2n1Cc1ccccc1"
  growth inhibition, %: 9
- COMPOUND: "O=c1c2ccccc2c(-c2ccc(Br)cc2)nn1Cc1ccccc1"
  growth inhibition, %: -14
- COMPOUND: "COc1cc(CNCc2cccs2)cc(Br)c1OC"
  growth inhibition, %: 5
- COMPOUND: "CCC(=O)Nc1ccc(S(=O)(=O)NCC2CCCO2)cc1 (configuration not stated)"
  growth inhibition, %: 3
- COMPOUND: "O=C(Cc1ccccc1)N/N=C/c1ccc(Cl)cc1Cl"
  growth inhibition, %: 1
- COMPOUND: "Cc1ccccc1OC/C(O)=C(\\C#N)c1nc2ccccc2[nH]1"
  growth inhibition, %: -10
- COMPOUND: "CCOc1ccc(N=C2NC(=O)S/C2=C\\c2ccc(O)cc2)cc1"
  growth inhibition, %: -8

Which growth inhibition value is on record for S=c1nccc(-c2cc(Cl)sc2Cl)[nH]1 ?
3

Name the reported growth inhibition value associated with the compound Cc1cccc(NC(=O)C(C)N2C(=O)C3C4CC(C(Br)C4Br)C3C2=O)c1 (configuration not stated)
7
